FYI, the data here is from patent US20100004222A1.

assay: Pharmacokinetic evaluation following intravenous and oral administration in rats; type: in vivo; conditions: male, Sprague-Dawley, plasma; rat; non-compartmental analysis; read-out: In vivo Clearance (converted)
Quantity: clearance (mL/min/kg)

1. Cc1cc(/C=C/C(F)(F)F)ccc1C(=O)Nc1cnc2sc(CO)nc2c1 [Compound 413]: 3.83
2. Cc1cc(C#CC2CCCC2)ccc1C(=O)Nc1ccc2c(c1)OCC(CO)N2 (centres unmarked) [Compound 125]: 33.7
3. O=C(Nc1ccc2c(c1)OCC(CO)N2)c1ccc(/C=C/C(F)(F)F)cc1F (centres unmarked) [Compound 144]: 31.5
4. Cc1cc(C#CC(C)(C)C)ccc1C(=O)Nc1cnc2ccccc2c1 [Compound 181]: 41.8
5. Cc1nc2cc(NC(=O)c3ccc(/C=C/C(F)(F)F)cc3C)cnc2s1 [Compound 412]: 7.17

###

Reported IC50 values for a set of compounds
Target: VR1 (Homo sapiens, UniProt Q8NER1)
Sequence (Q8NER1 whole entry, species assumed): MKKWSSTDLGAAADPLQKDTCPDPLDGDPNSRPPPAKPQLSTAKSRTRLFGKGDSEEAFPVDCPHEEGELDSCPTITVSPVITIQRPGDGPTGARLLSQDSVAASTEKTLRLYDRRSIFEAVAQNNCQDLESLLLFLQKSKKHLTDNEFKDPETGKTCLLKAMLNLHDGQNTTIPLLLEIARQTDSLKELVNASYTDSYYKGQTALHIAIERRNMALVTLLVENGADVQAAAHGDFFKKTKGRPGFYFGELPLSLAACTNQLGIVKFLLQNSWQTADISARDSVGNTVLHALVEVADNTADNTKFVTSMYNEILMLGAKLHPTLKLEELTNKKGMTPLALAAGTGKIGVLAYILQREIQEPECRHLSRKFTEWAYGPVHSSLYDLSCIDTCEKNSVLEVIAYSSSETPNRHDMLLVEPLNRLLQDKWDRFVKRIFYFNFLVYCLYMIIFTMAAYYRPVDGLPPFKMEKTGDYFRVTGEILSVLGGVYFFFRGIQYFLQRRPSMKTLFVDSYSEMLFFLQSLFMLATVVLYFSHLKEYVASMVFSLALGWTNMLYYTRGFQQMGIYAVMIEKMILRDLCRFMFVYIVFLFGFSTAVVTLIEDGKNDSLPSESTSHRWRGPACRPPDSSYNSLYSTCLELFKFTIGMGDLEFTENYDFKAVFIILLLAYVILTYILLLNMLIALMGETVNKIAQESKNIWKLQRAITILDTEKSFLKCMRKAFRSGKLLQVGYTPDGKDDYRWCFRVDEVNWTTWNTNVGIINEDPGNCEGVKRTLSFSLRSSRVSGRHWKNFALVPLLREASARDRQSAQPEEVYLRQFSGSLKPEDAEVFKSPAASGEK
Assay: Acid stimulation assay (FDSS 6000)
Conditions: final assay buffer pH5.8, 15 min pre-incubation
Method: The Acid-induced changes in the intracellular calcium concentration were monitored using FDSS 6000 (Hamamatsu Photonics, Japan), a fluorometric imaging system. The cell suspension in resting buffer (HBSS supplemented with 10 mM HEPES, pH 7.4) was pre-incubated with varying concentrations of the test compounds or resting buffer (buffer control) for 15 minutes at room temperature under dark conditions. […]
Quantity: IC50 (nM)

1) Cc1cc(/C=C/C(F)(F)F)ccc1C(=O)Nc1ccc2c(c1)N(C(=O)CO)CC2 [Compound 407]: 32
2) Cc1cc(/C=C/C(F)(F)F)ccc1C(=O)Nc1cnc2sc(CO)nc2c1 [Compound 413]: 4
3) Cc1cc(/C=C/C(F)(F)F)ccc1C(=O)Nc1cnc2c(c1)COC(CO)C2 (stereo not drawn) [Compound 310]: 109

###

experiment: Pharmacokinetic evaluation following intravenous and oral administration in rats; assay type: in vivo; settings: male, Sprague-Dawley, plasma; rat; non-compartmental analysis; read-out: In vivo Clearance (converted)
Tick TRUE if clearance is 2 L/h/kg or greater. Tick FALSE if clearance is less than 2 L/h/kg.

1) COc1cc(/C=C/C(F)(F)F)ccc1C(=O)Nc1ccc2c(c1)OCCN2: TRUE
2) O=C(Nc1ccc2c(c1)OCC(CO)N2)c1ccc(C#CC2CC2)cc1F (stereo not drawn): FALSE
3) Cc1cc(/C=C/C(F)(F)F)ccc1C(=O)Nc1cnc2ccccc2c1: FALSE
4) Cc1cc(/C=C/C(F)(F)F)ccc1C(=O)Nc1ccc2cc(C(C)O)cnc2c1 (stereo not drawn): FALSE
5) O=C(Nc1ccc2c(c1)OCCN2)c1ccc(/C=C/C(F)(F)F)cc1F: TRUE
6) Cc1cc(/C=C/C(F)(F)F)ccc1C(=O)Nc1ccc2cccnc2c1: FALSE
7) O=C(Nc1ccc2c(c1)OCC(CO)N2)c1ccc(/C=C/C(F)(F)F)cc1Cl (stereo not drawn): FALSE
8) Cc1cc(C#CC2CC2)ccc1C(=O)Nc1ccc2c(c1)OCC(CO)N2 (stereo not drawn): FALSE
9) COc1cc(/C=C/C(F)(F)F)ccc1C(=O)Nc1ccc2c(c1)OCCO2: FALSE
10) Cc1cc(/C=C/C(F)(F)F)ccc1C(=O)Nc1cnc2cccnc2c1: FALSE
11) Cc1nc2cc(NC(=O)c3ccc(/C=C/C(F)(F)F)cc3C)ccc2s1: FALSE
